# Tested on: bronchoconstriction induced by U-46619
# Method Notes: Inhibitory effect on bronchoconstriction induced by U-46619 (Konzett-Roessler)
# Assay type: in vivo, Male Hartley guinea-pigs
# Measurement Context: Cavia porcellus; 0.3 mg/kg orally, 2 hours before U-46619 (4 µg/kg, cervical vein), anesthetized guinea-pigs, compared to control group; read-out: Inhibition rate (%)
Measurement Name: inhibition in vivo at 0.3 mg/kg (%)
Value expressed in %; do not type the unit.

Known results for molecules:
Molecule | Tested System | Measurement
O=C(O)CCCc1ccc(C(CCC(F)(F)C(F)(F)C(F)(F)F)NS(=O)(=O)c2ccc(F)cc2)cc1 (stereo not shown) | bronchoconstriction induced by U-46619 | 82
O=C(O)CCCc1ccc(C(CCCC(F)(F)C(F)(F)F)NS(=O)(=O)c2ccc(Cl)cc2)cc1 (stereo not shown) | bronchoconstriction induced by U-46619 | 88
O=C(O)CCCc1ccc(C(CCC(F)(F)C(F)(F)C(F)(F)F)NS(=O)(=O)c2ccc(F)cc2)s1 (stereo not shown) | bronchoconstriction induced by U-46619 | 78
O=C(O)CCCc1ccc(C(CCCC(F)(F)C(F)(F)F)NS(=O)(=O)c2ccc(F)cc2)s1 (stereo not shown) | bronchoconstriction induced by U-46619 | 92
O=C(O)CCCc1ccc(C(CCCC(F)(C(F)(F)F)C(F)(F)F)NS(=O)(=O)c2ccc(F)cc2)s1 (stereo not shown) | bronchoconstriction induced by U-46619 | 89

Task: Report inhibition in vivo at 0.3 mg/kg, nothing else, for this molecule: O=C(O)CCCc1ccc(C(CCC(F)(F)C(F)(F)C(F)(F)C(F)(F)F)NS(=O)(=O)c2ccc(F)cc2)s1 (stereo not shown)
Result: 93

Task: Report inhibition in vivo at 0.3 mg/kg, nothing else, for this molecule: O=C(O)CCCc1ccc(C(CCCC(F)(F)C(F)(F)F)NS(=O)(=O)c2ccc(F)cc2)cc1 (stereo not shown)
Result: 71

###

# Tested on: human liver microsomes
# Method Notes: In vitro metabolism test
# Type: in vitro ADME
# Measurement Context: 0.4mg protein/ml human liver microsomes, 0.02 mM test compound, NADPH-generating system, 37°C for 30 minutes, HPLC
Residual rate (%) values, listed per item
Value expressed in %; do not type the unit.

Known results for compounds:
Compound | Measurement
O=C(O)CCCc1ccc(C(CCCC(F)(F)C(F)(F)C(F)(F)F)NS(=O)(=O)c2ccc(F)cc2)s1 (centres unmarked) | 84
O=C(O)CCCc1ccc(C(CCCC(F)(C(F)(F)F)C(F)(F)F)NS(=O)(=O)c2ccc(F)cc2)s1 (centres unmarked) | 78
O=C(O)CCCc1ccc(C(CCC(F)(F)C(F)(F)C(F)(F)F)NS(=O)(=O)c2ccc(F)cc2)cc1 (centres unmarked) | 83

Task: # assay system human liver microsomes: give Residual rate (%) of CCCCCC(NS(=O)(=O)c1ccc(Cl)cc1)c1ccc(CCCC(=O)O)cc1 (centres unmarked) [Reference compound 1, reference compound]
Result: 53

Task: # assay system human liver microsomes: give Residual rate (%) of O=C(O)CCCc1ccc(C(CCCC(F)(F)C(F)(F)F)NS(=O)(=O)c2ccc(Cl)cc2)cc1 (centres unmarked)
Result: 74

Task: # assay system human liver microsomes: give Residual rate (%) of O=C(O)CCCc1ccc(C(CCC(F)(F)C(F)(F)C(F)(F)C(F)(F)F)NS(=O)(=O)c2ccc(F)cc2)s1 (centres unmarked)
Result: 78

Task: # assay system human liver microsomes: give Residual rate (%) of O=C(O)CCCc1ccc(C(CCCC(F)(F)C(F)(F)F)NS(=O)(=O)c2ccc(F)cc2)s1 (centres unmarked)
Result: 87

Task: # assay system human liver microsomes: give Residual rate (%) of O=C(O)CCCc1ccc(C(CCCC(F)(F)C(F)(F)F)NS(=O)(=O)c2ccc(Cl)cc2)s1 (centres unmarked)
Result: 72

Task: # assay system human liver microsomes: give Residual rate (%) of CC(C)CCCC(NS(=O)(=O)c1ccc(Cl)cc1)c1ccc(CCCC(=O)O)cc1 (centres unmarked) [Reference compound 2, reference compound]
Result: 50

Task: # assay system human liver microsomes: give Residual rate (%) of O=C(O)CCCc1ccc(C(CCCC(F)(F)C(F)(F)C(F)(F)F)NS(=O)(=O)c2ccc(Cl)cc2)s1 (centres unmarked)
Result: 87

Task: # assay system human liver microsomes: give Residual rate (%) of O=C(O)CCCc1ccc(C(CCCC(F)(F)C(F)(F)F)NS(=O)(=O)c2ccc(F)cc2)cc1 (centres unmarked)
Result: 88
